Assay overview: Aqueous solubility of the compound
Assay type: physicochemical
Measurement context: buffer
Endpoint label: solubility (µg/mL)
Kindly provide the numeric value in µg/mL only, without the unit symbol.

Data request, read-out solubility, for "C[C@@H]1COc2ccc(OC(F)F)cc2[C@H](C)N1C(=O)c1ccc(Cl)cc1" 16

###

Assay overview: Metabolic stability in rat liver microsomes measured after 15 to 30 mins by LC-MS/MS analysis
Assay type: ADME, Microsome
Measurement context: read-out: Stability
# microsomal CLint per entry
Write down the numeric answer in µL/min/mg and omit the unit.

// solved cases for microsomal CLint follow
INSERT INTO assay_data (compound_structure_string, endpoint_label, obs_value) VALUES
  ('C[C@@H]1COc2ccc(Br)cc2[C@H](C)N1C(=O)c1ccc(Cl)cc1', 'microsomal CLint', 23),
  ('C[C@@H]1COc2ccc(C(F)(F)F)cc2[C@H](C)N1C(=O)c1ccc(Cl)cc1', 'microsomal CLint', 14),
  ('C[C@@H]1COc2ccc(OC(F)F)cc2[C@H](C)N1C(=O)c1ccc(Cl)cc1', 'microsomal CLint', 5);

Then this compound:
So what's the measured microsomal CLint for this one? "Cc1ccc2c(c1)[C@H](C)N(C(=O)c1ccc(Cl)cc1)[C@H](C)CO2" 238

###

Assay overview: Clearance in Sprague-Dawley rat at 0.1 mg/kg, iv and 1 mg/kg, po
Format: ADME, organism-based
Measurement context: in vivo
Endpoint label: clearance (mL/min/kg)
# value in mL/min/kg; strip the unit string

Look at this compound and give its reported clearance. "C[C@@H]1COc2ccc(OC(F)F)cc2[C@H](C)N1C(=O)c1ccc(Cl)cc1" 1.5

###

Assay overview: Passive permeability across MDCK cells
Assay type: ADME, cell-based, Canis lupus familiaris
Measurement context: dog, read-out: permeability
Endpoint label: Papp (×10⁻⁶ cm/s)
Give the value in ×10⁻⁶ cm/s but do not write ×10⁻⁶ cm/s after it.

Consider the compound "C[C@@H]1COc2ccc(OC(F)F)cc2[C@H](C)N1C(=O)c1ccc(Cl)cc1" and give its measured Papp. 22.7

###

Assay overview: Lipophilicity, log D of the compound
Format: physicochemical
Measurement context: octanol/water
Endpoint label: logD
Respond using a number only.

Would you kindly share the measured logD for "C[C@@H]1COc2ccc(OC(F)F)cc2[C@H](C)N1C(=O)c1ccc(Cl)cc1" ? 3.32

###

Assay overview: Metabolic stability in human liver microsomes measured after 15 to 30 mins by LC-MS/MS analysis
Assay type: ADME, Microsome
Measurement context: read-out: Stability
Reported microsomal CLint values for the following compounds.
# value in µL/min/mg; strip the unit string

INSERT INTO measurements (compound_structure_string, endpoint_label, obs_value) VALUES
  ('CSc1ccc2c(c1)[C@H](C)N(C(=O)c1ccc(Cl)cc1)[C@H](C)CO2', 'microsomal CLint', 146),
  ('COc1ccc2c(c1)[C@H](C)N(C(=O)c1ccc(Cl)cc1)[C@H](C)CO2', 'microsomal CLint', 98),
  ('Cc1ccc2c(c1)[C@H](C)N(C(=O)c1ccc(Cl)cc1)[C@H](C)CO2', 'microsomal CLint', 115),
  ('C[C@@H]1COc2ccccc2[C@H](C)N1C(=O)c1ccc(Cl)cc1', 'microsomal CLint', 8),
  ('C[C@@H]1COc2ccc(OC(F)(F)F)cc2[C@H](C)N1C(=O)c1ccc(Cl)cc1', 'microsomal CLint', 7);

Entry "CCc1ccc2c(c1)[C@H](C)N(C(=O)c1ccc(Cl)cc1)[C@H](C)CO2" : reported microsomal CLint = ? 146

Please report the recorded microsomal CLint for "C[C@@H]1COc2ccc(F)cc2[C@H](C)N1C(=O)c1ccc(Cl)cc1" . 15

So what does the record say about microsomal CLint for "C[C@@H]1COc2ccc(C(F)(F)F)cc2[C@H](C)N1C(=O)c1ccc(Cl)cc1" ? 30
